Exercise: for every item that follows, state its recorded TGI.
Tested on: OVCAR-8 ovarian
Experiment: NCI tumour cell line growth inhibition, 48 h

Answered examples (6):
compound=CC#CC#C/C(=C/C=CC(=O)OC)SC parameter=TGI reported="> 100 µM"
compound=CON[N+]([O-])=NC(C)C parameter=TGI reported="> 100 µM"
compound=NS(=O)(=O)c1ccc(NC(=O)c2ccc3nc4ccccc4c(Nc4ccc(S(N)(=O)=O)cc4)c3c2)cc1 parameter=TGI reported="> 100 µM"
compound=CC(C)(C)CI parameter=TGI reported="> 10 µM"
compound=Cc1cc(N=Cc2c(CO)cnc(C)c2O)c(N=Cc2c(CO)cnc(C)c2O)cc1C parameter=TGI reported="> 100 µM"
compound=Cn1c(=O)c2c(=O)cc(N)[nH]c2n(C)c1=O parameter=TGI reported="> 100 µM"

Give measured TGI for every item shown.
1. Nc1ncnc2c1ccn2-c1cccc(NC(=O)c2ccc(N3CCOCC3)c(C(F)(F)F)c2)c1
2. O=C(N/N=C/c1ccncc1)c1ccc(F)cc1
3. c1ccc(/C(=N/Nc2ccccn2)c2cccnn2)cc1
4. N#CCCN(c1ccc(C=O)cc1)S(=O)(=O)c1ccccc1
5. C=C(Br)COc1ccc2c(C)cc(=O)oc2c1

1: 9.62 µM; 2: > 40 µM; 3: 18.9 µM; 4: > 100 µM; 5: > 100 µM

* * *

Test system: SK-OV-3 ovarian
Assay: NCI tumour cell line growth inhibition, 48 h
Exercise: for every item that follows, state its recorded TGI.

compound=C/C(CCN(C)C)=N\OC(=O)c1ccccc1 reported="> 100 µM"
compound=CCN(CC)CCSc1c(C(C)=O)c(=O)n(-c2ccccc2)c(=S)n1-c1ccccc1 reported="> 100 µM"

Read off the recorded TGI for `CN(C)c1ccc(/C=c2/c3cc(O)ccc3n3c2cc(-c2ccccc2)[n+]3C)cc1`
> 100 µM

* * *

Test system: NCI-H23 lung
Assay: NCI tumour cell line growth inhibition, 48 h
parameter: TGI

compound=Cc1cc(-c2cc(OC(=O)c3ccccc3)ccc2Cl)cc2nnc(Nc3ccc(OCCN4CCCC4)cc3)nc12 parameter=TGI reported="3.66 µM"
compound=CN(Cc1cnc2nc(N)nc(N)c2n1)c1ccc(C(=O)NCCCC(=O)O)cc1 parameter=TGI reported="> 100 µM"
compound=O=C1CN(c2ccccc2)C(=O)CN1NCNN1CC(=O)N(c2ccccc2)CC1=O parameter=TGI reported="> 100 µM"
compound=O=C(/C=C/C=C/c1ccc2c(c1)OCO2)N/N=C\c1ccc(O)cc1O parameter=TGI reported="10.6 µM"
compound=COC(=O)c1cccc(NC(=O)c2ccc(NC3=C(Cl)C(=O)N(Cc4ccccc4)C3=O)cc2)c1 parameter=TGI reported="22.4 µM"
compound=Cc1cccc(N=N/C(=N\NC(=O)c2cc(Cl)ccc2O)c2ccc(N(CCC#N)CCC#N)cc2C)c1 parameter=TGI reported="> 100 µM"
compound=CC(C)C(=O)/C=C/c1c(Cl)cccc1Cl parameter=TGI reported="7.24 µM"
compound="NC1NCCC(=O)N1CCc1c[nH]c2ccccc12 (stereo not given)" parameter=TGI reported="38.6 µM"

Give measured TGI for every item shown.
1. Cn1c(=O)c2c(=O)cc(N)[nH]c2n(C)c1=O
2. O=C(/C=C/c1cccc(Br)c1)N1CCN(CCOC(c2ccccc2)c2ccccc2)CC1
3. COc1ccc(/C=C/C(=O)CCN2CCN(CCC(=O)/C=C/c3ccc(OC)cc3)CC2)cc1
4. O[C@@]12Cc3c([nH]c4ccccc34)[C@@H]3Oc4c(-c5ccccc5)ccc5c4[C@@]31CCN(CC1CC1)[C@@H]2C5
5. COc1ccc2nc3cc(Cl)ccc3c(NCCCCCC(=O)NC(COc3ccc4ccc5cccnc5c4n3)COc3ccc4ccc5cccnc5c4n3)c2c1

["> 100 µM", "> 100 µM", "30.1 µM", "3.55 µM", "48.6 µM"]

Give measured TGI for every item shown.
1. O=C(CC(C(=O)c1cccs1)c1ccc2c(c1)OCO2)c1ccccc1 (stereo not given)
2. CC(C)C(CCOS(=O)(=O)O)CCC(C)[C@H]1[C@@H](O)C(O)C2[C@]3(O)C[C@@H](O)C4(O)C[C@@H](O)CC[C@]4(C)C3CC[C@@]21C (stereo not given in full)
3. CC1(C)C(CC(=O)O)CCCC1CC(=O)O (stereo not given)
4. CCOc1cc2c(cc1O)C(=O)C[C@@H]1[C@@H]2CC[C@]2(C)[C@@H](O)CC[C@@H]12
5. COC(=O)c1c2c(cc3c1CC1(C3)Cc3cc4c(c(C(=O)OC)c3C1)CCC4)CCC2

1. > 100 µM
2. > 100 µM
3. > 100 µM
4. 43.7 µM
5. > 100 µM

Give measured TGI for every item shown.
1. Cc1cc(C)c(/C=N/NS(=O)(=O)c2ccccc2)c(C)c1
2. COc1ccc(-c2cc(=O)c3cc(O)ccc3o2)c(OC)c1OC
3. CC(=O)Nc1ccc(C2=N/C(=C\c3ccc(Cl)cc3)C(=O)O2)cc1
4. CC(N)C(C)c1ccccc1 (stereo not given)
5. CCOC(=O)CC1Nc2ccccc2C12CCc1c([nH]c3ccccc13)C2C(=O)OCC (stereo not given)

> 100 µM
> 100 µM
> 100 µM
> 100 µM
> 100 µM

Give measured TGI for every item shown.
1. Nc1ccc(C2SCC(=O)N2NS(=O)(=O)c2cccc(C(=O)O)c2)cc1 (stereo not given)
2. CCc1ccccc1NC(=O)C(=O)C1C(=O)N(c2ccccc2)N=C1N (stereo not given)
3. CN(C)NC1=NS(=O)(=O)c2cc3c(=O)n(C)[nH]c3cc2S1

> 100 µM
> 100 µM
> 10 µM

Give measured TGI for every item shown.
1. NC(CSCSCC(N)C(=O)O)C(=O)O (stereo not given)
2. C[C@@H](c1ccccc1)N1CO[C@@]2(C#Cc3ccc4c(c3)OCO4)CCC[C@@H]12
3. S=C1NNC2(C(=S)N1)c1ccccc1-c1ccccc12
4. O=C1OC(c2ccccc2Br)=N/C1=C/c1ccccc1

1. > 225 µM
2. 28.8 µM
3. > 10 µM
4. > 100 µM
